Field: Activity. Provide a value for each of the molecules that follow.
target-or-system: UniProt P10145
Sequence (P10145 whole entry): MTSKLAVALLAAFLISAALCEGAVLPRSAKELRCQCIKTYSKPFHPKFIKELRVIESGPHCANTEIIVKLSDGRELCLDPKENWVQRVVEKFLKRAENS
method-notes: Binding affinity to human CXCL8 at 100 uM by glycan microarray analysis
# value in %; strip the unit string

Input line: // query Activity value for entry "NCCOCCO[C@@H]1O[C@@H](C(=O)O)[C@@H](O[C@@H]2O[C@@H](C(=O)O)[C@@H](O[C@@H]3O[C@@H](C(=O)O)[C@@H](O[C@@H]4O[C@@H](C(=O)O)[C@@H](OS(=O)(=O)O)[C@H](O)[C@H]4O)[C@H](O)[C@H]3O)[C@H](O)[C@H]2O)[C@H](O)[C@H]1O"
Output line: 13

Input line: // query Activity value for entry "NCCOCCO[C@@H]1O[C@@H](C(=O)O)[C@@H](O[C@@H]2O[C@@H](C(=O)O)[C@@H](O[C@@H]3O[C@@H](C(=O)O)[C@@H](O[C@@H]4O[C@@H](C(=O)O)[C@@H](O)[C@H](O)[C@H]4O)[C@H](O)[C@H]3O)[C@H](O)[C@H]2O)[C@H](O)[C@H]1O"
Output line: 12

Input line: // query Activity value for entry "NCCOCCO[C@@H]1O[C@@H](C(=O)O)[C@@H](O[C@@H]2O[C@@H](C(=O)O)[C@@H](O[C@@H]3O[C@@H](C(=O)O)[C@@H](OS(=O)(=O)O)[C@H](O)[C@H]3OS(=O)(=O)O)[C@H](O)[C@H]2OS(=O)(=O)O)[C@H](O)[C@H]1OS(=O)(=O)O"
Output line: 95

Input line: // query Activity value for entry "NCCOCCO[C@@H]1O[C@@H](C(=O)O)[C@@H](O)[C@H](O)[C@H]1O"
Output line: 17

Input line: // query Activity value for entry "NCCOCCO[C@@H]1O[C@@H](C(=O)O)[C@@H](O[C@@H]2O[C@@H](C(=O)O)[C@@H](OS(=O)(=O)O)[C@H](O)[C@H]2O)[C@H](O)[C@H]1O"
Output line: 73

Input line: // query Activity value for entry "NCCOCCO[C@@H]1O[C@@H](C(=O)O)[C@@H](OS(=O)(=O)O)[C@H](O)[C@H]1OS(=O)(=O)O"
Output line: 71

Input line: // query Activity value for entry "NCCOCCO[C@@H]1O[C@@H](C(=O)O)[C@@H](O[C@@H]2O[C@@H](C(=O)O)[C@@H](OS(=O)(=O)O)[C@H](O)[C@H]2OS(=O)(=O)O)[C@H](O)[C@H]1OS(=O)(=O)O"
Output line: 83

Input line: // query Activity value for entry "NCCOCCO[C@@H]1O[C@@H](C(=O)O)[C@@H](O[C@@H]2O[C@@H](C(=O)O)[C@@H](O[C@@H]3O[C@@H](C(=O)O)[C@@H](O)[C@H](O)[C@H]3O)[C@H](O)[C@H]2O)[C@H](O)[C@H]1O"
Output line: 5

Input line: // query Activity value for entry "NCCOCCO[C@@H]1O[C@@H](C(=O)O)[C@@H](O[C@@H]2O[C@@H](C(=O)O)[C@@H](O[C@@H]3O[C@@H](C(=O)O)[C@@H](O[C@@H]4O[C@@H](C(=O)O)[C@@H](OS(=O)(=O)O)[C@H](O)[C@H]4OS(=O)(=O)O)[C@H](O)[C@H]3OS(=O)(=O)O)[C@H](O)[C@H]2OS(=O)(=O)O)[C@H](O)[C@H]1OS(=O)(=O)O"
Output line: 96
